targetUnderTest: HCV RNA-dependent RNA polymerase (NS5B protein) (Hepatitis C virus genotype 1b)
Sequence (P26663 2420-3010 limits assumed): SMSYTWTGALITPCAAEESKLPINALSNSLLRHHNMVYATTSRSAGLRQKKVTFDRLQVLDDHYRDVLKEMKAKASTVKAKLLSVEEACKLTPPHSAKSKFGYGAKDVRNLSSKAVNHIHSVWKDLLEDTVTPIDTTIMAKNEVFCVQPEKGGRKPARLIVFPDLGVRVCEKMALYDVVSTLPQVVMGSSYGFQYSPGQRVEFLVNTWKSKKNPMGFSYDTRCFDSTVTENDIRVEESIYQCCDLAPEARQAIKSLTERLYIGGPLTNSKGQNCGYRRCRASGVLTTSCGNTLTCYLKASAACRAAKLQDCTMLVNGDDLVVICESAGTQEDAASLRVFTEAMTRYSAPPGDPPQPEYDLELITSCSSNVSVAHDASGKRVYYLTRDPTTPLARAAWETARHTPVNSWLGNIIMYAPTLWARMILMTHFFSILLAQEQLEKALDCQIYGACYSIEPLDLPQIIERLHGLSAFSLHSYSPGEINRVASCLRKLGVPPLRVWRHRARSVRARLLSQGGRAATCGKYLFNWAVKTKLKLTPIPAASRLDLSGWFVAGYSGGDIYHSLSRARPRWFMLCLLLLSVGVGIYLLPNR
protocolNotes: In vitro HCV RNA-dependent RNA polymerase assay (Assay 1, polyA/oligo dT, 32P-UTP incorporation)
conditionLabel: purified recombinant HCV NS5B, homopolymeric template/primer polyA/oligo dT; read-out: RNA pol Assay1 IC50
assayMetric: IC50

Use the examples below as a reference point.
O=C(Nc1nc(-c2ccccc2)sc1C(=O)O)c1ccc(Cl)cc1 [Compound #7]; > 20 µM
Cc1ccccc1S(=O)(=O)Nc1nc(-c2ccccc2)sc1C(=O)O; 5 to 20 µM
Cc1ccc(S(=O)(=O)Nc2nc(-c3ccccc3)sc2C(=O)O)cc1; > 20 µM
CN(C(=O)c1ccccc1Cl)c1nc(-c2ccccc2)sc1C(=O)O; 5 to 20 µM
Cc1ccc(C(=O)N(C)c2nc(-c3ccccc3)sc2C(=O)O)cc1; < 5 µM

Lab note: HCV RNA-dependent RNA polymerase (NS5B protein) (Hepatitis C virus genotype 1b) assay, enter IC50 for Cc1ccc(C(=O)N(C)c2nc(N3CCOCC3)sc2C(=O)O)c(C)c1 here 5 to 20 µM

Lab note: HCV RNA-dependent RNA polymerase (NS5B protein) (Hepatitis C virus genotype 1b) assay, enter IC50 for O=C(Nc1nc(-c2ccccc2)sc1C(=O)O)c1ccc(Cl)cc1Cl here 5 to 20 µM

Lab note: HCV RNA-dependent RNA polymerase (NS5B protein) (Hepatitis C virus genotype 1b) assay, enter IC50 for CCN(C(=O)c1ccc(Cl)cc1Cl)c1nc(-c2ccccc2)sc1C(=O)O here < 5 µM

Lab note: HCV RNA-dependent RNA polymerase (NS5B protein) (Hepatitis C virus genotype 1b) assay, enter IC50 for Cc1ccc(C(=O)N(c2nc(-c3ccccc3)sc2C(=O)O)C(C)C)cc1 here < 5 µM

Lab note: HCV RNA-dependent RNA polymerase (NS5B protein) (Hepatitis C virus genotype 1b) assay, enter IC50 for Cc1ccc(S(=O)(=O)Nc2nc(-c3ccccc3)sc2C(=O)O)c(C)c1 here 5 to 20 µM

Lab note: HCV RNA-dependent RNA polymerase (NS5B protein) (Hepatitis C virus genotype 1b) assay, enter IC50 for Cc1cccc(C(=O)Nc2nc(-c3ccccc3)sc2C(=O)O)c1 here > 20 µM

Lab note: HCV RNA-dependent RNA polymerase (NS5B protein) (Hepatitis C virus genotype 1b) assay, enter IC50 for CN(C(=O)c1ccc(Cl)cc1Cl)c1nc(-c2ccccc2)sc1C(=O)O here < 5 µM

Lab note: HCV RNA-dependent RNA polymerase (NS5B protein) (Hepatitis C virus genotype 1b) assay, enter IC50 for CN(C(=O)c1ccc(Cl)cc1)c1nc(-c2ccccc2)sc1C(=O)O here < 5 µM

Lab note: HCV RNA-dependent RNA polymerase (NS5B protein) (Hepatitis C virus genotype 1b) assay, enter IC50 for Cc1ccc(C(=O)Nc2nc(-c3ccccc3)sc2C(=O)O)c(C)c1 here > 20 µM

Lab note: HCV RNA-dependent RNA polymerase (NS5B protein) (Hepatitis C virus genotype 1b) assay, enter IC50 for CC(C)N(C(=O)c1ccc(Cl)cc1Cl)c1nc(-c2ccccc2)sc1C(=O)O here < 5 µM

Lab note: HCV RNA-dependent RNA polymerase (NS5B protein) (Hepatitis C virus genotype 1b) assay, enter IC50 for O=C(Nc1nc(-c2ccccc2)sc1C(=O)O)c1ccc(Cl)cc1 [Compound #15] here 5 to 20 µM
